# TGT: HLA-A*03:01
# ASSAY NAME: IEDB peptide-MHC binding, purified MHC/direct/fluorescence; filed as Kd, often an IC50 or EC50 that approximates it; bounds were set here for any values at or beyond the usual limits of such assays
# EXPERIMENTAL CONTEXT: source organism: Cryptosporidium parvum Iowa II
OBSERVATION TYPE: Kd

LPLESCFGV: ≥ 20 µM

Read the next record carefully.
For record MPMSMPIPM the listed Kd is ≥ 20 µM

----------
# TGT: HLA-C*15:02
# ASSAY NAME: IEDB peptide-MHC binding, purified MHC/direct/fluorescence; filed as Kd, often an IC50 or EC50 that approximates it; bounds were set here for any values at or beyond the usual limits of such assays
# EXPERIMENTAL CONTEXT: source organism: Pan troglodytes
OBSERVATION TYPE: pKd
Notebook: values listed as pKd are -log10 of the concentration (mol/L).

For record YYFSYPLFV the listed pKd is 6.11
